- Test system: UniProtKB P56373
- Experimental details: Evaluation of human P2X3 receptor inhibitory activity (ATP-induced Fluo-3 fluorescence, FDSS 3000)
- Measurement setup: C6BU-1 cell transfected with human P2X3 receptor gene
Please use Condition met for IC50 under 0.03 µM and Condition not met for everything else, ties included.

Past entries and their recorded results:
entry_smiles=CC(=O)OC(C)(C)C(=O)Nc1cnc(Nc2ccc(OC(C)C)c(F)c2)n(Cc2ccc(Cl)cc2)c1=O test_system="UniProtKB P56373" class_name="Condition met"
entry_smiles=CCCC(=O)Nc1cnc(Nc2ccc(OC(C)C)c(F)c2)n(Cc2ccc(Cl)cc2)c1=O test_system="UniProtKB P56373" class_name="Condition met"
entry_smiles=CC(C)Oc1ccc(Nc2ncc(NC(=O)C(=O)O)c(=O)n2Cc2ccc(Cl)cc2)cc1F test_system="UniProtKB P56373" class_name="Condition met"
entry_smiles=COC(=O)[C@H](C)NC(=O)c1cnc(Nc2ccc(OC(C)C)c(F)c2)n(Cc2ccc(Cl)cc2)c1=O test_system="UniProtKB P56373" class_name="Condition met"

input: Please indicate whether the reported IC50 of `CC(C)Oc1ccc(Nc2ncc(NS(C)(=O)=O)c(=O)n2Cc2ccc(Cl)cc2)cc1F` is strictly below 0.03 µM.
output: Condition not met

input: Please indicate whether the reported IC50 of `CNc1cnc(Nc2ccc(OC(C)C)c(F)c2)n(Cc2ccc(Cl)cc2)c1=O` is strictly below 0.03 µM.
output: Condition not met

input: Please indicate whether the reported IC50 of `CC(C)Oc1ccc(Nc2ncc(C(=O)N[C@@H](C)C(=O)O)c(=O)n2Cc2ccc(Cl)cc2)cc1F` is strictly below 0.03 µM.
output: Condition not met

input: Please indicate whether the reported IC50 of `CCc1nc2ccc(Nc3ncc(NC(=O)C4CCOCC4)c(=O)n3Cc3ccc(Cl)cc3)cc2s1` is strictly below 0.03 µM.
output: Condition met

input: Please indicate whether the reported IC50 of `CC(C)Oc1ccc(Nc2ncc(NC(=O)CCO)c(=O)n2Cc2ccc(Cl)cc2)cc1F` is strictly below 0.03 µM.
output: Condition not met

input: Please indicate whether the reported IC50 of `Cc1cc(=O)n(Cc2ccc(Cl)cc2)c(Nc2ccc3nc(C)sc3c2)n1` is strictly below 0.03 µM.
output: Condition not met

###

- Test system: human P2X3 receptor (Homo sapiens (Human), UniProt P56373)
- Sequence (P56373 whole entry): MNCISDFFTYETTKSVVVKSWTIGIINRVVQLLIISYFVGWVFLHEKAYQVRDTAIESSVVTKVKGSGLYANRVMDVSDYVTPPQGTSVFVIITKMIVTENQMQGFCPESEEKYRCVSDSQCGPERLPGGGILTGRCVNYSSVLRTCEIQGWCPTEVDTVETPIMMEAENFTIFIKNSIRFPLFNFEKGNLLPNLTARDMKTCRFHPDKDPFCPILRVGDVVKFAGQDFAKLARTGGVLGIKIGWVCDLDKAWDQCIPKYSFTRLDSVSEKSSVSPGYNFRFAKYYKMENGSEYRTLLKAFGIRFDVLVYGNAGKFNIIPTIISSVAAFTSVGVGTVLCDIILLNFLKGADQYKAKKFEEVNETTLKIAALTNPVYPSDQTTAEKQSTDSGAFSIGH
- Experimental details: Evaluation of human P2X3 receptor inhibitory activity (ATP-induced Fluo-3 fluorescence, FDSS 3000)
- Assay type: cell-based
- Measurement setup: C6BU-1 cell transfected with human P2X3 receptor gene
Measured IC50 accompanies every entry in the list below.
Field format: number, assumed nM, no unit text.

compound="CCc1c(C)nc(Nc2ccc3nc(C)sc3c2)n(Cc2ccc(Cl)cc2)c1=O [I-351]" readout=IC50 units_text=nM readout_number=146

Summary for this compound, Cc1nc2ccc(Nc3nc(=O)c(C(=O)NCCCO)cn3Cc3ccc(Cl)cc3)cc2s1 [I-299] : IC50 is 111

Summary for this compound, CC(=O)Nc1cnc(Nc2ccc(OC(C)C)c(F)c2)n(Cc2ccc(Cl)cc2)c1=O [I-246] : IC50 is 106

Summary for this compound, COc1ccc(C(=O)Nc2cnc(Nc3ccc(OC(C)C)c(F)c3)n(Cc3ccc(Cl)cc3)c2=O)cn1 [I-274] : IC50 is 66

Summary for this compound, CC(C)(CN1C(=O)N(Cc2ccc(Cl)cc2)C(Nc2cccc(C(F)(F)F)c2)=CC1O)C(=O)O (stereo not drawn) [I-113] : IC50 is 72

Summary for this compound, Cc1nc2ccc(Nc3nc(=O)c(C(=O)NCCC#N)cn3Cc3ccc(Cl)cc3)cc2s1 [I-301] : IC50 is 123

Summary for this compound, Cc1nc2ccc(Nc3nc(C)c(NC(=O)OC(C)(C)C)c(=O)n3Cc3ccc(Cl)cc3)cc2s1 [I-348] : IC50 is 105

Summary for this compound, CC(C)Oc1ccc(Nc2cc(=O)n(Cc3ccccc3)cc2C(O)c2ccc(Cl)cc2)cc1Cl (stereo not drawn) [I-068] : IC50 is 105

Summary for this compound, CC(C)Oc1ccc(Nc2ncc(N(C)C(=O)OC(C)(C)C)c(=O)n2Cc2ccc(Cl)cc2)cc1F [I-208] : IC50 is 50

Summary for this compound, Cc1ccc(Oc2ccc(Nc3ncc(N)c(=O)n3Cc3ccc(Cl)cc3)cc2)cn1 [I-292] : IC50 is 433

Summary for this compound, CC(C)(Cn1c(=O)cc(Nc2cccc(C(F)(F)F)n2)n(Cc2ccc(Cl)cc2)c1=O)C(=O)O [I-114] : IC50 is 160

Summary for this compound, CCc1cnc(Nc2ccc(OC(C)C)c(F)c2)c(Oc2ccc(C)cc2)n1 [I-072] : IC50 is 749
